Target: Tar (Salmonella enterica, UniProt P02941)
Construct: native chromosomal full-length receptor, homodimer in mixed receptor arrays; strain TSS868 (LT2 delta-tsr delta-cheY delta-cheZ) with CheZ-CFP/CheY-YFP plasmid pVS88; other native receptors present
Sequence (P02941 whole entry): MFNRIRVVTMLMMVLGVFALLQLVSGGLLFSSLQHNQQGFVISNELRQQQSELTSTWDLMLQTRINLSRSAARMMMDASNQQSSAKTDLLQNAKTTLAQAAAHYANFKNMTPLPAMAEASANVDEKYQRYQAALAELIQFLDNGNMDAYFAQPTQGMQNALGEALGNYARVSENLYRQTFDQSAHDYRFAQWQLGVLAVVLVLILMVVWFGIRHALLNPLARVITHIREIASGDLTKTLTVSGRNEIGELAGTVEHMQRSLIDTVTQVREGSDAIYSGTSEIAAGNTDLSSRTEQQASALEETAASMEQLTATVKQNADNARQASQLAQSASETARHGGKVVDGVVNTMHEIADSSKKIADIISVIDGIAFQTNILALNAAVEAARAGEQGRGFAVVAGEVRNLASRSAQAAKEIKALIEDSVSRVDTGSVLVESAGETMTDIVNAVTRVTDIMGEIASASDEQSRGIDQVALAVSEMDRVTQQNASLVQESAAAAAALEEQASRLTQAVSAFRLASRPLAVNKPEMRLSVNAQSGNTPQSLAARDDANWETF
Assay: in vivo CheZ-CFP/CheY-YFP FRET of receptor-kinase activity, Hill fit
Details: live delta-tsr cells, motility buffer pH 7.0, room temperature; attractant; Hill coefficient 1.5; other receptors present; about 1% of Cys possibly oxidized to cystine; read-out: half maximum
property_name: pEC50
Units for pEC50: none; it is -log10 of a concentration expressed in mol/L.

INPUT: May I ask what pEC50 has been recorded for N[C@@H](CS)C(=O)O [Cys] ?
OUTPUT: 3.89

These data points were gathered from paper PMC4824473.
